biological target: HLA-A*0201 (HLA-A2.1) (Homo sapiens, UniProt P04439, D140Y/D185E/D98H/E176V/E277Q/G131W/G231S/I119V/I121R/I166T/I218V/L300P/L318F/N151K/N90K/P208A/P217A/Q86G/Q94H/R138H/R169H/T345S); assay: biochemical; format: binding
Listing of entries alongside the reported A2.1.
Please give only the number in your answer, with no unit.

Please review the entries below; each comes with its answer.
{"columns": ["SEQUENCE_CODE", "A2.1"],
 "data": [
  ["PLVLGTLEEV", 0.0008],
  ["FLIIVLVMI", 0.0005],
  ["YIFATCLGL", 0.018],
  ["GLLGDNQIM", 0.0051],
  ["DLVGFLLL", 0]
]}

Requested read-out: A2.1. Entry: `EVYDGREHSA`
0

Can you share its A2.1? I mean this sequence: `AVITKKVADL`
0

Would you kindly share the measured A2.1 for `CILESLFRAV` ?
0.0003

Look at this sequence and give its reported A2.1. `CLGLSYDGLL`
0

Would you kindly share the measured A2.1 for `QLVFGIDV` ?
0

I have this sequence here, `FLIIVLVM` , and I need its recorded A2.1.
0

Bench note: what A2.1 did `ALEAQQEA` show?
0

# query: A2.1 of entry `IMPKTGFL`
0.0001

Sample `ILESLFRAV` — what was its A2.1?
0.0004

Suppose we examine the sequence `PVTKAEML` ; what A2.1 value has been reported?
0

Value lookup for A2.1; key = `KLLTQDLV`
0.0004

# input sequence: `DLQQSLRVL` ; wanted: its A2.1
0

What measured A2.1 goes with `QIMPKAGLL` ?
0

Suppose we examine the sequence `LLKYRAREPV` ; what A2.1 value has been reported?
0

Which A2.1 is listed for `VITKKVADLV` ?
0

Quick check: A2.1 of `QIMPKTGFL` ?
0.0007

GET /values?readout=A2.1&item= `KLPGLLSRDL`
0

The origin of these recorded values is patent US9340577B2.
